test: gradient 5% acetonitrile 3 min, to 50% in 2 min, to 85% in 15 min, held 3 min, 100 µL/min; details: column: Zorbax Extend-C18 2.1 x 50 mm; eluents: water / acetonitrile, 0.1% formic acid
Parameter: RP-LC retention time (s)

Below, each entry is followed by its recorded RP-LC retention time result.
q: Identify the reported RP-LC retention time for the following entry. O=S(=O)(c1ccccc1Cl)N1CCC(c2noc(COCC3CC3)n2)CC1
a: 950

q: Given the compound Cn1nccc1-c1cccc(-c2noc(-c3cc(F)ccc3F)n2)c1 , write its reported RP-LC retention time.
a: 1100

q: Determine from records and report RP-LC retention time for CCOC(=O)c1c(C)c(C(=O)C(C)N(C(=O)c2ccc(Cl)cc2)C2CC2)c(C)n1CC (stereo not given)
a: 1140

q: Check the records and state RP-LC retention time for CCn1cnc(S(=O)(=O)N2CCC(C(=O)Nc3cc(C)ccc3C)CC2)c1
a: 719

(a) CCOc1cc2c(cc1OCC)C1C(C(=O)N3CCN(C)CC3)c3ccccc3C(=O)N1CC2 (stereo not given)
(b) CCc1nc(-c2csc(S(=O)(=O)N3CCCC(C(=O)Nc4ccc(C)c(F)c4)C3)c2)no1 (stereo not given)
q: Which gives the smaller RP-LC retention time number: a or b ? Mark your answer with the label of the selected entry.
a: a
(a: 567 s, b: 1110 s)

(a) CC(=O)c1cccc(NC(=O)c2cnn(-c3ccc(Br)cc3)c2)c1
(b) COc1cccc2cc(C(=O)NC3CNC(=O)C3)oc12 (stereo not given)
q: Decide: a or b , by lowest recorded RP-LC retention time. Label of pick, please.
a: b
(b: 586 s, a: 940 s)

(P) CCN(CC)S(=O)(=O)c1ccc2c(c1)N(CC(=O)NC1CC1)C(=O)C1CCCCN21 (stereo not given)
(Q) CCOC(=O)c1c(NC(=O)CN2CCN(c3ncccn3)CC2)sc2c1CCC2
q: Short answer wanted: higher RP-LC retention time, P or Q ? Bench note: the answer is the label of the chosen record.
a: Q

(1) COc1ccc(Cl)cc1C(=O)Nc1ccc2c(c1)CN(C(=O)c1cccs1)CC2
(2) Cc1cnn(Cc2c(C(=O)N3C[C@@H](C(N)=O)[C@H](c4nc(C)no4)C3)noc2C)c1
q: Which item exceeds the other in RP-LC retention time, 1 or 2 ? State the label of the item chosen.
a: 1

---

test: gradient 5% acetonitrile 3 min, to 50% in 2 min, to 85% in 15 min, held 3 min, 100 µL/min; conditions: column: Zorbax Extend-C18 2.1 x 50 mm; eluents: water / acetonitrile, 0.1% formic acid
Parameter: RP-LC retention time (s)

Completed entries (count: 4):
q: Quote RP-LC retention time reported for CCOC(=O)CNC(=O)NCC(c1ccccc1)c1c[nH]c2ccccc12 (centres undefined) please.
a: 847

q: Indicate its recorded RP-LC retention time; the compound in question is Cc1onc(-c2ccccc2Cl)c1C(=O)Nn1cnc2c(cnn2C(C)(C)C)c1=O
a: 864

q: Given CC(C)c1ccc(-n2nc(N3CCN(C(=O)c4cccs4)CC3)ccc2=O)cc1 , respond with its RP-LC retention time.
a: 913

q: Please look at this compound and report its RP-LC retention time: O=C1CN(Cc2ccco2)C2CS(=O)(=O)CC2N1c1ccc(Cl)cc1 (centres undefined)
a: 714

(I) CN1C(=O)C2(CCN(C(=O)COc3ccc(Cl)cc3)C2)c2ccccc21 (centres undefined)
(II) CN(C)CCNC(=O)c1cc(S(=O)(=O)N2CCOCC2)ccc1Cl
(III) CCCOc1ccc(-c2noc(Cc3nc(-c4ccccc4)cs3)n2)cc1
q: Number of compounds to sort: 3. Sort criterion: RP-LC retention time, ascending. The labels, placed in the requested order, form the answer.
a: II, I, III
(II: 563 s, I: 838 s, III: 1340 s)

(A) CCc1nc(-c2cccc(-c3noc(CNS(=O)(=O)c4ccc(Cl)cc4)n3)c2)cs1
(B) Cc1ccccc1CN1CCN(CC(=O)NCc2ccc3c(c2)OCO3)C(=O)C1=O
q: Which value of RP-LC retention time is smaller, the one for A or the one for B ? Kindly give the label for the entry you pick.
a: B
(B: 715 s, A: 1130 s)

(I) O=c1n(Cc2cc(F)cc(F)c2)nc2c(S(=O)(=O)N3CCCCCC3)cccn12
(II) COc1cn2c(cc1=O)C(=O)N(CCNC(=O)c1c(F)cccc1Cl)CC2
q: Problem: Given the entries I and II , determine which has the lower reported RP-LC retention time. Lab note: record the label of whichever item you select.
a: II
(II: 660 s, I: 973 s)

---

experiment: gradient 5% acetonitrile 3 min, to 50% in 2 min, to 85% in 15 min, held 3 min, 100 µL/min; settings: column: Zorbax Extend-C18 2.1 x 50 mm; eluents: water / acetonitrile, 0.1% formic acid
Parameter: RP-LC retention time (s)

In the examples that follow, each entry is paired with its recorded RP-LC retention time.
q: Name the recorded RP-LC retention time of the item CCc1nc2sc(C)nn2c1S(=O)(=O)N1CCOCC1 in your answer.
a: 699

q: Please list RP-LC retention time recorded for the compound CCN1C(=O)c2ccccc2Oc2ccc(C(=O)NC3CCCCC3)cc21
a: 967

q: Output measured RP-LC retention time for this item: CCCNC(=O)C1CCCN(c2nc3ncn(CC(=O)Nc4ccccc4Cl)c(=O)c3s2)C1 (stereo not given)
a: 738

(P) CCOc1coc(C(=O)Nc2cccc(F)c2)cc1=O
(Q) COc1cccc(Cn2c(=O)c3cnc(-c4ccc(C)cc4)nc3n(C)c2=O)c1
q: Between item P and item Q , which reported RP-LC retention time is smaller? Write the label of whichever entry you select.
a: P

---

experiment: gradient 5% acetonitrile 3 min, to 50% in 2 min, to 85% in 15 min, held 3 min, 100 µL/min; settings: column: Zorbax Extend-C18 2.1 x 50 mm; eluents: water / acetonitrile, 0.1% formic acid
Parameter: RP-LC retention time (s)

Some compounds with recorded RP-LC retention time:
q: Return RP-LC retention time for the following compound: Cn1ncc2c(N3CCCC3)nc(C(=O)NCc3ccc(Cl)cc3)nc21
a: 858

q: Let me know recorded RP-LC retention time for Cc1nc(C(=O)Nc2ccc(F)cc2C)c(C)o1 , thanks.
a: 889

q: Output measured RP-LC retention time for this item: O=C(CNC(=O)c1ccccc1)Nc1nc2ccccc2[nH]1
a: 598

(I) O=C1CC(c2nc(-c3ccc(C(F)(F)F)cc3)no2)CN1c1ccc2c(c1)OCO2 (stereo not given)
(II) CCCN1CCN(C(=O)CC(C)S(=O)(=O)c2ccc3c(c2)CCN3C(C)=O)CC1 (stereo not given)
q: Look at I and II . Which one has the lower recorded RP-LC retention time number? Returns: label corresponding to the selected item.
a: II

(1) Cc1ccc(NS(=O)(=O)c2ccc(-c3nnc(C4CCC4)o3)o2)cc1F
(2) Cc1ccn2c(Nc3ccc4c(c3)OCO4)c(-c3ccc(O)cc3)nc2c1
q: Between 1 and 2 , whose recorded RP-LC retention time is greater? Write down the label attached to your selection.
a: 1

---

experiment: gradient 5% acetonitrile 3 min, to 50% in 2 min, to 85% in 15 min, held 3 min, 100 µL/min; conditions: column: Zorbax Extend-C18 2.1 x 50 mm; eluents: water / acetonitrile, 0.1% formic acid
Parameter: RP-LC retention time (s)

q: Given the compound O=C(Nc1ccc2c(c1)N(C(=O)c1cccs1)CC2)c1ccccn1 , write its reported RP-LC retention time.
a: 824

q: Name the recorded RP-LC retention time of the item CC(=O)N1CCCc2cc(S(=O)(=O)CCC(=O)Nc3ccc(Br)cc3F)ccc21 in your answer.
a: 824

q: Identify RP-LC retention time associated with the compound Cc1nc(CC(=O)Nc2ccc(Cl)c(F)c2)sc1C(=O)NC1CC1
a: 750

q: Specify reported RP-LC retention time for the compound shown: COc1cc(C)c(Sc2cnc(NC(=O)c3ccc(CNC(C)C(C)(C)C)cc3)s2)cc1C(=O)N1CCN(C(C)=O)CC1 (stereo not given)
a: 762

q: For the compound COc1ccc(C)cc1NC(=O)C1CCCN(C(=O)C2Sc3ccccc3NC2=O)C1 (stereo not given) , give its measured RP-LC retention time value.
a: 852

---

experiment: gradient 5% acetonitrile 3 min, to 50% in 2 min, to 85% in 15 min, held 3 min, 100 µL/min; details: column: Zorbax Extend-C18 2.1 x 50 mm; eluents: water / acetonitrile, 0.1% formic acid
Parameter: RP-LC retention time (s)

(a) Cc1ccc(NC(=O)N2CCC(c3nc(C(=O)N4CCCC4)c(C)o3)CC2)cc1Cl
(b) CN(C)CCNCc1ccc(-c2ccc(Br)cc2)o1
q: Quick check, higher RP-LC retention time between a and b ? Mark your selection by writing its label.
a: a

(P) CC1=C(c2cccc(Cl)c2)S(=O)(=O)N=C1N1CCC(NC(=O)C2CCC2)CC1
(Q) CCn1ncc(CN(C)C(=O)c2cn3ccccc3n2)c1C
q: Choose between P and Q : whose measured RP-LC retention time value is numerically larger? Reply with the label of the item you choose.
a: P
